All values here come from ChEMBL document CHEMBL1629687.

assay: Cytotoxicity against african green monkey COS1 cells assessed as reduction in cell viability after 32 hrs by luminescent assay; format: cell-based, COS-1; conditions: chlorocebus aethiops, read-out: INH
Short version: cytotoxicity at 32 h at least 10% is 1, less is 0.

| Compound | Discrete Label |
| --- | --- |
| CC[C@@H](C(=O)[C@@H](C)[C@@H](O)[C@H](C)[C@@H]1O[C@@H]([C@@H](CC)C(=O)O)CC[C@@H]1C)[C@H]1O[C@]2(C=C[C@@H](O)[C@]3(CC[C@@](C)([C@H]4CC[C@](O)(CC)[C@H](C)O4)O3)O2)[C@H](C)C[C@@H]1C | 1 |
| CC[C@H]1CN2CCc3cc(OC)c(OC)cc3[C@@H]2C[C@@H]1C[C@H]1NCCc2cc(OC)c(OC)cc21.Cl.Cl [EMETINE HYDROCHLORIDE] | 0 |
| COc1cccc2c1C(=O)c1c(O)c3c(c(O)c1C2=O)C[C@@](O)(C(=O)CO)C[C@@H]3O[C@H]1C[C@H](N)[C@H](O)[C@H](C)O1.Cl [DOXORUBICIN HYDROCHLORIDE] | 1 |

// query Check the entry Cc1c2ccncc2c(C)c2c1[nH]c1ccccc12 : does cytotoxicity at 32 h equal or exceed 10%?
// result 0

// query Check the entry O=C1C=C2C(=CCOC2O)O1 (stereo unspecified) : does cytotoxicity at 32 h equal or exceed 10%?
// result 1

// query Check the entry CC[C@H]1CN2CCc3cc(OC)c(OC)cc3[C@@H]2C[C@@H]1C[C@H]1NCCc2cc(O)c(OC)cc21.Cl.Cl [CEPHAELINE DIHYDROCHLORIDE] : does cytotoxicity at 32 h equal or exceed 10%?
// result 1
